Values from patent US20060018915A1

- assayed-target: T1, A*3101 (human, UniProt P61769 21-119, limits assumed)
- T1 construct: MHC class I molecule; form in the assay not described; also called HLA-A*3101
- T1 sequence (P61769 21-119 limits assumed, chain 2 of 2, other chains not shown): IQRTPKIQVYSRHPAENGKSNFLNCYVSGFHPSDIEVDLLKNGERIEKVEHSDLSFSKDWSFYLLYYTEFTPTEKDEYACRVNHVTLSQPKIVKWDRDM
- test-details: HLA binding, candidate-epitope table; assay not described
pIC50: −log10 of the molar value.
result-type: pIC50

>>> print(df.to_string())
                                     binder  result_type  recorded_result
0  VVFGILIKR (also called 1095.51) [Her2/neu.669]        pIC50             7.89
